Reported viability, T/C by item:
System: KRAS PDC multicell spheroid viability
Assay: Anticancer human tumor 521955-158-R6-J3-PDC patient-derived pancreatic carcinoma cell line growth inhibition [KRAS2]
Conditions: second compound 10 µM; first compound 0.01 µM; stronger effect = lower value
Express it in %; write the number only.

molecule	test system	property measured	measured value
CC(=O)Nc1cccc(-n2c(=O)n(C3CC3)c(=O)c3c(Nc4ccc(I)cc4F)n(C)c(=O)c(C)c32)c1 + COc1cc2nc(C)nc(NC(C)c3cc(N)cc(C(F)(F)F)c3)c2cc1OC1CCOC1	KRAS PDC multicell spheroid viability	viability, T/C	4.51
CC(=O)Nc1cccc(-n2c(=O)n(C3CC3)c(=O)c3c(Nc4ccc(I)cc4F)n(C)c(=O)c(C)c32)c1 + CNCc1ccccc1-c1csc(C(C)Nc2nc(C)nc3cc(OC)c(OC)cc23)c1	KRAS PDC multicell spheroid viability	viability, T/C	4.06

API: value(readout=viability, T/C, system=KRAS PDC multicell spheroid viability) for record CCN1CCN(Cc2ccc(Nc3ncc(F)c(-c4cc(F)c5nc(C)n(C(C)C)c5c4)n3)nc2)CC1 + COc1cc2nc(C)nc(NC(C)c3cc(N)cc(C(F)(F)F)c3)c2cc1OC1CCOC1
33.6

API: value(readout=viability, T/C, system=KRAS PDC multicell spheroid viability) for record CN(C)C/C=C/C(=O)Nc1cc2c(Nc3ccc(F)c(Cl)c3)ncnc2cc1O[C@H]1CCOC1 + COc1cc2nc(C)nc(NC(C)c3cc(N)cc(C(F)(F)F)c3)c2cc1OC1CCOC1
26.2

API: value(readout=viability, T/C, system=KRAS PDC multicell spheroid viability) for record CC(=O)OC12COC1CC(O)C1(C)C(=O)C(O)C3=C(C)C(OC(=O)C(O)C(NC(=O)OC(C)(C)C)c4ccccc4)CC(O)(C(OC(=O)c4ccccc4)C21)C3(C)C (stereo not given) + CNCc1ccccc1-c1csc(C(C)Nc2nc(C)nc3cc(OC)c(OC)cc23)c1
1.35

###

System: KRAS PDC multicell spheroid viability
Experiment: Anticancer human tumor 521955-158-R6-J3-PDC cell line growth inhibition [KRAS2];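 also: drug exposure lasted seven days; 100% = DMSO vehicle wells and lower means fewer viable cells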
Conditions: second compound 3.16 µM; first compound 0.316 µM; stronger effect = lower value
From the text: Multicellular complex tumor spheroid response to RAS pathway inhibitors in combination with a targeted agents in patient-derived cell lines with oncogenic KRAS variants from multiple cancer types A high-throughput screen of multi-cell type tumor spheroids was designed to identify active combinations of targeted small molecules and KRAS pathway inhibitors. […] Compounds. […] If the clinical Cmax for an agent had not been determined, the highest concentration tested was 10 microM. […]
property measured: viability, T/C (%)
Express it in %; write the number only.

Study these solved cases before continuing.
compound	viability, T/C / %
COc1cc2nccc(Oc3ccc(NC(=O)C4(C(=O)Nc5ccc(F)cc5)CC4)cc3)c2cc1OC + COc1cc2nc(C)nc(NC(C)c3cc(N)cc(C(F)(F)F)c3)c2cc1OC1CCOC1	70.8
CC(C)NCC(C(=O)N1CCN(c2ncnc3c2C(C)CC3O)CC1)c1ccc(Cl)cc1 (stereo not given) + COc1cc2nc(C)nc(NC(C)c3cc(N)cc(C(F)(F)F)c3)c2cc1OC1CCOC1	67.2
COc1cc2nccc(Oc3ccc(NC(=O)C4(C(=O)Nc5ccc(F)cc5)CC4)cc3)c2cc1OC + C=CC(=O)N1CCN(c2nc(=O)n(-c3c(C)ccnc3C(C)C)c3nc(-c4c(O)cccc4F)c(F)cc23)C(C)C1	87.4
CC(=O)OC12COC1CC(O)C1(C)C(=O)C(O)C3=C(C)C(OC(=O)C(O)C(NC(=O)OC(C)(C)C)c4ccccc4)CC(O)(C(OC(=O)c4ccccc4)C21)C3(C)C (stereo not given) + C=CC(=O)N1CCN(c2nc(=O)n(-c3c(C)ccnc3C(C)C)c3nc(-c4c(O)cccc4F)c(F)cc23)C(C)C1	101

API: value(readout=viability, T/C, system=KRAS PDC multicell spheroid viability) for record CC(C)NCC(C(=O)N1CCN(c2ncnc3c2C(C)CC3O)CC1)c1ccc(Cl)cc1 (stereo not given) + CNCc1ccccc1-c1csc(C(C)Nc2nc(C)nc3cc(OC)c(OC)cc23)c1
0.26

###

Test system: KRAS PDC multicell spheroid viability
Experiment: Anticancer human tumor 521955-158-R6-J3-PDC cell line growth inhibition [KRAS2];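 also: drug exposure lasted seven days; 100% = DMSO vehicle wells and lower means fewer viable cells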
Settings: second compound 3.16 µM; first compound 0.0316 µM; stronger effect = lower value
Reported viability, T/C by item:
Express it in %; write the number only.

Study these solved cases before continuing.
compound	viability, T/C / %
CC(C)NCC(C(=O)N1CCN(c2ncnc3c2C(C)CC3O)CC1)c1ccc(Cl)cc1 (stereo not given) + CNCc1ccccc1-c1csc(C(C)Nc2nc(C)nc3cc(OC)c(OC)cc23)c1	0.31
Cn1nccc1Nc1nccc(-c2cc3c(s2)C(C)(C)N(CCN2CCOCC2)C3=O)n1 + COc1cc2nc(C)nc(NC(C)c3cc(N)cc(C(F)(F)F)c3)c2cc1OC1CCOC1	83.6
CC1(C)CCC(CN2CCN(c3ccc(C(=O)NS(=O)(=O)c4ccc(NCC5CCOCC5)c([N+](=O)[O-])c4)c(Oc4cnc5[nH]ccc5c4)c3)CC2)=C(c2ccc(Cl)cc2)C1 + COc1cc2nc(C)nc(NC(C)c3cc(N)cc(C(F)(F)F)c3)c2cc1OC1CCOC1	68.9
CC1COCCN1c1cc(-c2ccnn2C)c2ccnc(-c3ccn[nH]3)c2n1 (stereo not given) + CC1OCC2(CCN(c3cnc(Sc4ccnc(N)c4Cl)c(N)n3)CC2)C1N	109

Alright, here's another compound for you.
What value of measured viability, T/C is listed for CC(=O)OC12COC1CC(O)C1(C)C(=O)C(O)C3=C(C)C(OC(=O)C(O)C(NC(=O)OC(C)(C)C)c4ccccc4)CC(O)(C(OC(=O)c4ccccc4)C21)C3(C)C (stereo not given) + C=CC(=O)N1CCN(c2nc(=O)n(-c3c(C)ccnc3C(C)C)c3nc(-c4c(O)cccc4F)c(F)cc23)C(C)C1 ?
88.1

###

Reported viability, T/C by item:
System: KRAS PDC multicell spheroid viability
Assay: Anticancer human tumor 521955-158-R6-J3-PDC cell line growth inhibition [KRAS2];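 also: drug exposure lasted seven days; 100% = DMSO vehicle wells and lower means fewer viable cells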
Settings: second compound 0.1 µM; first compound 0.000316 µM; stronger effect = lower value
Text: Multicellular complex tumor spheroid response to RAS pathway inhibitors in combination with a targeted agents in patient-derived cell lines with oncogenic KRAS variants from multiple cancer types A high-throughput screen of multi-cell type tumor spheroids was designed to identify active combinations of targeted small molecules and KRAS pathway inhibitors. […] Compounds. […] If the clinical Cmax for an agent had not been determined, the highest concentration tested was 10 microM. […]
Express it in %; write the number only.

Study these solved cases before continuing.
compound	result unit	viability, T/C
CN(C)C/C=C/C(=O)Nc1cc2c(Nc3ccc(F)c(Cl)c3)ncnc2cc1O[C@H]1CCOC1 + CNCc1ccccc1-c1csc(C(C)Nc2nc(C)nc3cc(OC)c(OC)cc23)c1	%	82.2
Cn1ncnc1[C@H]1c2n[nH]c(=O)c3cc(F)cc(c23)N[C@@H]1c1ccc(F)cc1 + C=CC(=O)N1CCN(c2nc(OCC3CCCN3C)nc3c2CCN(c2cccc4cccc(C)c24)C3)CC1CC#N	%	94.2
CC(=O)Nc1cccc(-n2c(=O)n(C3CC3)c(=O)c3c(Nc4ccc(I)cc4F)n(C)c(=O)c(C)c32)c1 + C=CC(=O)N1CCN(c2nc(OCC3CCCN3C)nc3c2CCN(c2cccc4cccc(C)c24)C3)CC1CC#N	%	111
CN(C)C/C=C/C(=O)Nc1cc2c(Nc3ccc(F)c(Cl)c3)ncnc2cc1O[C@H]1CCOC1 + C=CC(=O)N1CCN(c2nc(OCC3CCCN3C)nc3c2CCN(c2cccc4cccc(C)c24)C3)CC1CC#N	%	97.2

Alright, here's another compound for you.
What value of measured viability, T/C is listed for Cn1ncnc1[C@H]1c2n[nH]c(=O)c3cc(F)cc(c23)N[C@@H]1c1ccc(F)cc1 + CNCc1ccccc1-c1csc(C(C)Nc2nc(C)nc3cc(OC)c(OC)cc23)c1 ?
96.3

###

Test system: KRAS PDC multicell spheroid viability
Assay: Anticancer human tumor 521955-158-R6-J3-PDC cell line growth inhibition [KRAS2];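 also: drug exposure lasted seven days; 100% = DMSO vehicle wells and lower means fewer viable cells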
Conditions: second compound 3.16 µM; first compound 0.316 µM; stronger effect = lower value
property measured: viability, T/C

Study these solved cases before continuing.
compound	test system	viability, T/C
CC1(C)CCC(CN2CCN(c3ccc(C(=O)NS(=O)(=O)c4ccc(NCC5CCOCC5)c([N+](=O)[O-])c4)c(Oc4cnc5[nH]ccc5c4)c3)CC2)=C(c2ccc(Cl)cc2)C1 + C=CC(=O)N1CCN(c2nc(=O)n(-c3c(C)ccnc3C(C)C)c3nc(-c4c(O)cccc4F)c(F)cc23)C(C)C1	KRAS PDC multicell spheroid viability	95.2%
O=C(c1cc(Cc2n[nH]c(=O)c3ccccc23)ccc1F)N1CCN(C(=O)C2CC2)CC1 + COc1cc2nc(C)nc(NC(C)c3cc(N)cc(C(F)(F)F)c3)c2cc1OC1CCOC1	KRAS PDC multicell spheroid viability	67.2%
CC1(C)CCC(CN2CCN(c3ccc(C(=O)NS(=O)(=O)c4ccc(NCC5CCOCC5)c([N+](=O)[O-])c4)c(Oc4cnc5[nH]ccc5c4)c3)CC2)=C(c2ccc(Cl)cc2)C1 + CNCc1ccccc1-c1csc(C(C)Nc2nc(C)nc3cc(OC)c(OC)cc23)c1	KRAS PDC multicell spheroid viability	0.57%

Alright, here's another compound for you.
What value of measured viability, T/C is listed for CC(C)NCC(C(=O)N1CCN(c2ncnc3c2C(C)CC3O)CC1)c1ccc(Cl)cc1 (centres undefined) + C=CC(=O)N1CCN(c2nc(=O)n(-c3c(C)ccnc3C(C)C)c3nc(-c4c(O)cccc4F)c(F)cc23)C(C)C1 ?
66.5%
